Hey, just so you know, these numbers are from patent US20260184669A1.

Method: Stability of mRNA-LNPs according to storage temperature and duration
Type: physicochemical
Condition set: fLuc mRNA-LNP stored at 4° C., day 7
Assay readout: PDI D-7
Kindly provide the number alone.

Task: Fill blank: measured PDI D-7 of the molecule CCCCCCCCCCCOC(=O)CCCCCN(CCCCCCCC(=O)OC(CCCCCCCC)CCCCCCCC)CC(O)CCCCNC(=O)c1nccn1C (stereo not shown) is ____.
Result: 0.146

Task: Fill blank: measured PDI D-7 of the molecule CCCCCCCCCCCOC(=O)CCCCCN(CCCCCCCC(=O)OC(CCCCCCCC)CCCCCCCC)CC(O)CCCCNC(=O)c1ccn(C)c1 (stereo not shown) is ____.
Result: 0.122

Task: Fill blank: measured PDI D-7 of the molecule CCCCCCCCCCCOC(=O)CCCCCN(CCCCCCCC(=O)OC(CCCCCCCC)CCCCCCCC)CC(O)CCCCNC(=O)c1ncc[nH]1 (stereo not shown) is ____.
Result: 0.079

Task: Fill blank: measured PDI D-7 of the molecule CCCCCCCCCCCOC(=O)CCCCCN(CCCCCCCC(=O)OC(CCCCCCCC)CCCCCCCC)CC(O)CCCCNC(=O)c1cccn1C (stereo not shown) is ____.
Result: 0.064

Task: Fill blank: measured PDI D-7 of the molecule CCCCCCCCCCCOC(=O)CCCCCN(CCCCCCCC(=O)OC(CCCCCCCC)CCCCCCCC)CC(O)CCCCNC(=O)c1cn(C)cn1 (stereo not shown) is ____.
Result: 0.155

Task: Fill blank: measured PDI D-7 of the molecule CCCCCCCCCCCOC(=O)CCCCCN(CCCCCCCC(=O)OC(CCCCCCCC)CCCCCCCC)CC(O)CCCCNC(=O)c1c[nH]c(O)n1 (stereo not shown) is ____.
Result: 0.089

Task: Fill blank: measured PDI D-7 of the molecule CCCCCCCCCCCOC(=O)CCCCCN(CCCCCCCC(=O)OC(CCCCCCCC)CCCCCCCC)CC(O)CCCCNC(=O)c1c[nH]cn1 (stereo not shown) is ____.
Result: 0.126

Task: Fill blank: measured PDI D-7 of the molecule CCCCCCCCCCCOC(=O)CCCCCN(CCCCCCCC(=O)OC(CCCCCCCC)CCCCCCCC)CC(O)CCCCNC(=O)c1c(O)ccn1C (stereo not shown) is ____.
Result: 0.114

Task: Fill blank: measured PDI D-7 of the molecule CCCCCCCCCCCOC(=O)CCCCCN(CCCCCCCC(=O)OC(CCCCCCCC)CCCCCCCC)CC(O)CCCCNC(=O)c1ccc[nH]1 (stereo not shown) is ____.
Result: 0.138

Task: Fill blank: measured PDI D-7 of the molecule CCCCCCCCCCCOC(=O)CCCCCN(CCCCCCCC(=O)OC(CCCCCCCC)CCCCCCCC)CC(O)CCCCNC(=O)c1cnc(O)n1C (stereo not shown) is ____.
Result: 0.106

----------
Method: Stability of mRNA-LNPs according to storage temperature and duration
Assay type: physicochemical
Condition set: fLuc mRNA-LNP stored at 4° C., day 7
Assay readout: Size (nm) D-7
Dear colleague, please send the value followed by its unit.

Task: Fill blank: measured Size (nm) D-7 of the molecule CCCCCCCCCCCOC(=O)CCCCCN(CCCCCCCC(=O)OC(CCCCCCCC)CCCCCCCC)CC(O)CCCCNC(=O)c1nccn1C (stereo not drawn) is ____.
Result: 114.4 nm

Task: Fill blank: measured Size (nm) D-7 of the molecule CCCCCCCCCCCOC(=O)CCCCCN(CCCCCCCC(=O)OC(CCCCCCCC)CCCCCCCC)CC(O)CCCCNC(=O)c1cnc(O)n1C (stereo not drawn) is ____.
Result: 155.6 nm

Task: Fill blank: measured Size (nm) D-7 of the molecule CCCCCCCCCCCOC(=O)CCCCCN(CCCCCCCC(=O)OC(CCCCCCCC)CCCCCCCC)CC(O)CCCCNC(=O)c1cc[nH]c1 (stereo not drawn) is ____.
Result: 133.8 nm

----------
Method: Stability of mRNA-LNPs according to storage temperature and duration
Format: physicochemical
Condition set: fLuc mRNA-LNP stored at 25° C., day 7
I'd be grateful if you could share measured Size (nm) D-7 for these entries.
Unit nm implied. Number only.

Task: Fill blank: measured Size (nm) D-7 of the molecule CCCCCCCCCCCOC(=O)CCCCCN(CCCCCCCC(=O)OC(CCCCCCCC)CCCCCCCC)CC(O)CCCCNC(=O)c1cncn1C (stereo not shown) is ____.
Result: 140.4

Task: Fill blank: measured Size (nm) D-7 of the molecule CCCCCCCCCCCOC(=O)CCCCCN(CCCCCCCC(=O)OC(CCCCCCCC)CCCCCCCC)CC(O)CCCCNC(=O)c1cccn1C (stereo not shown) is ____.
Result: 126.1

Task: Fill blank: measured Size (nm) D-7 of the molecule CCCCCCCCCCCOC(=O)CCCCCN(CCCCCCCC(=O)OC(CCCCCCCC)CCCCCCCC)CC(O)CCCCNC(=O)c1cn(C)cn1 (stereo not shown) is ____.
Result: 133.6

Task: Fill blank: measured Size (nm) D-7 of the molecule CCCCCCCCCCCOC(=O)CCCCCN(CCCCCCCC(=O)OC(CCCCCCCC)CCCCCCCC)CC(O)CCCCNC(=O)c1ccn(C)c1 (stereo not shown) is ____.
Result: 172.5

Task: Fill blank: measured Size (nm) D-7 of the molecule CCCCCCCCCCCOC(=O)CCCCCN(CCCCCCCC(=O)OC(CCCCCCCC)CCCCCCCC)CC(O)CCCCNC(=O)c1c(O)ccn1C (stereo not shown) is ____.
Result: 113.5

Task: Fill blank: measured Size (nm) D-7 of the molecule CCCCCCCCCCCOC(=O)CCCCCN(CCCCCCCC(=O)OC(CCCCCCCC)CCCCCCCC)CC(O)CCCCNC(=O)c1ncc[nH]1 (stereo not shown) is ____.
Result: 122.9

Task: Fill blank: measured Size (nm) D-7 of the molecule CCCCCCCCCCCOC(=O)CCCCCN(CCCCCCCC(=O)OC(CCCCCCCC)CCCCCCCC)CC(O)CCCCNC(=O)c1nccn1C (stereo not shown) is ____.
Result: 110.6

Task: Fill blank: measured Size (nm) D-7 of the molecule CCCCCCCCCCCOC(=O)CCCCCN(CCCCCCCC(=O)OC(CCCCCCCC)CCCCCCCC)CC(O)CCCCNC(=O)c1c[nH]c(O)n1 (stereo not shown) is ____.
Result: 133.3

Task: Fill blank: measured Size (nm) D-7 of the molecule CCCCCCCCCCCOC(=O)CCCCCN(CCCCCCCC(=O)OC(CCCCCCCC)CCCCCCCC)CC(O)CCCCNC(=O)c1c[nH]cn1 (stereo not shown) is ____.
Result: 129.6

Task: Fill blank: measured Size (nm) D-7 of the molecule CCCCCCCCCCCOC(=O)CCCCCN(CCCCCCCC(=O)OC(CCCCCCCC)CCCCCCCC)CC(O)CCCCNC(=O)c1ccc[nH]1 (stereo not shown) is ____.
Result: 137.7

Task: Fill blank: measured Size (nm) D-7 of the molecule CCCCCCCCCCCOC(=O)CCCCCN(CCCCCCCC(=O)OC(CCCCCCCC)CCCCCCCC)CC(O)CCCCNC(=O)c1cc[nH]c1 (stereo not shown) is ____.
Result: 134.2

Task: Fill blank: measured Size (nm) D-7 of the molecule CCCCCCCCCCCOC(=O)CCCCCN(CCCCCCCC(=O)OC(CCCCCCCC)CCCCCCCC)CC(O)CCCCNC(=O)c1cnc(O)n1C (stereo not shown) is ____.
Result: 146.8

Task: Fill blank: measured Size (nm) D-7 of the molecule CCCCC/C=C\C/C=C\CCCCCCCCC(CCCCCCCC/C=C\C/C=C\CCCCC)OC(=O)CCCN(C)C [MC3, DLin-MC3-DMA, reference compound] is ____.
Result: 123.0

----------
Method: Stability of mRNA-LNPs according to storage temperature and duration
Type: physicochemical
Condition set: fLuc mRNA-LNP stored at 25° C., day 7
Assay readout: Normalized EE % D-7 (%)
Unit % implied. Number only.

Task: Fill blank: measured Normalized EE % D-7 of the molecule CCCCCCCCCCCOC(=O)CCCCCN(CCCCCCCC(=O)OC(CCCCCCCC)CCCCCCCC)CC(O)CCCCNC(=O)c1c[nH]cn1 (stereo not shown) [Compound 34] is ____.
Result: 90.9

Task: Fill blank: measured Normalized EE % D-7 of the molecule CCCCC/C=C\C/C=C\CCCCCCCCC(CCCCCCCC/C=C\C/C=C\CCCCC)OC(=O)CCCN(C)C [MC3, DLin-MC3-DMA, reference compound] is ____.
Result: 90.8

Task: Fill blank: measured Normalized EE % D-7 of the molecule CCCCCCCCCCCOC(=O)CCCCCN(CCCCCCCC(=O)OC(CCCCCCCC)CCCCCCCC)CC(O)CCCCNC(=O)c1cnc(O)n1C (stereo not shown) [Compound 40] is ____.
Result: 90.9

Task: Fill blank: measured Normalized EE % D-7 of the molecule CCCCCCCCCCCOC(=O)CCCCCN(CCCCCCCC(=O)OC(CCCCCCCC)CCCCCCCC)CC(O)CCCCNC(=O)c1c[nH]c(O)n1 (stereo not shown) [Compound 35] is ____.
Result: 85.3

Task: Fill blank: measured Normalized EE % D-7 of the molecule CCCCCCCCCCCOC(=O)CCCCCN(CCCCCCCC(=O)OC(CCCCCCCC)CCCCCCCC)CC(O)CCCCNC(=O)c1cccn1C (stereo not shown) [Compound 18] is ____.
Result: 85.6

Task: Fill blank: measured Normalized EE % D-7 of the molecule CCCCCCCCCCCOC(=O)CCCCCN(CCCCCCCC(=O)OC(CCCCCCCC)CCCCCCCC)CC(O)CCCCNC(=O)c1cncn1C (stereo not shown) [Compound 38] is ____.
Result: 88.0

Task: Fill blank: measured Normalized EE % D-7 of the molecule CCCCCCCCCCCOC(=O)CCCCCN(CCCCCCCC(=O)OC(CCCCCCCC)CCCCCCCC)CC(O)CCCCNC(=O)c1ccn(C)c1 (stereo not shown) [Compound 19] is ____.
Result: 88.1
